src = paper PMC4550771

# system tested: human recombinant MMP-2 catalytic domain (Homo sapiens, UniProt P08253)
# Construct: a panel of ten human recombinant MMP catalytic domains
# Sequence (P08253 110-446 limits assumed): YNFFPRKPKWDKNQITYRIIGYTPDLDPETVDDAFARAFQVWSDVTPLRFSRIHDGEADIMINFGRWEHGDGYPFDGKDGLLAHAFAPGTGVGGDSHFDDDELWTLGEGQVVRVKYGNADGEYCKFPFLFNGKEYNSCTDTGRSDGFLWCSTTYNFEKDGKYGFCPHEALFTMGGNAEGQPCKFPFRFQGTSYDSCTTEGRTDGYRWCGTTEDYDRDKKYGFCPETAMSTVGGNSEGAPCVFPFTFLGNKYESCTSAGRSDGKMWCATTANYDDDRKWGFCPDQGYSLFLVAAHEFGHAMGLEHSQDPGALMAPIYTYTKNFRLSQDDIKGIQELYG
# assay notes: Recombinant MMP fluorescent assay kit (OmniMMP substrate)
pIC50: −log10 of the molar value.

{"columns": ["cpd smiles", "system tested", "pIC50"],
 "data": [
  ["Cc1cc(=O)c(O)c(C(=O)NCc2ccc(-c3ccc(-c4ccccc4)cc3)cc2)o1", "human recombinant MMP-2 catalytic domain (Homo sapiens, UniProt P08253)", "4.30 to 5.70"]
]}

* * *

# system tested: human recombinant MMP-9 catalytic domain (Homo sapiens, UniProt P14780)
# Construct: a panel of ten human recombinant MMP catalytic domains
# Sequence (P14780 107-444 limits assumed): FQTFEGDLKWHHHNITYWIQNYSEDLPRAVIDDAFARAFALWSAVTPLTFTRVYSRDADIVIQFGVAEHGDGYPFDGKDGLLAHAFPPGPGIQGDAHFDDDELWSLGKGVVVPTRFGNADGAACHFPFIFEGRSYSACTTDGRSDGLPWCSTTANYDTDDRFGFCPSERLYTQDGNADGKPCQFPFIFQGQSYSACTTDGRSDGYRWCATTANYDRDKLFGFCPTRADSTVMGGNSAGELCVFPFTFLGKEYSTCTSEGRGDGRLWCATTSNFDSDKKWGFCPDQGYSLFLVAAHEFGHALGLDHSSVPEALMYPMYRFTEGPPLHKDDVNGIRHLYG
# assay notes: Recombinant MMP fluorescent assay kit (OmniMMP substrate)
pIC50: −log10 of the molar value.
property measured: pIC50

{"columns": ["cpd smiles", "test result"],
 "data": [
  ["Cc1cc(=O)c(O)c(C(=O)NCc2ccc(-c3ccc(-c4ccccc4)cc3)cc2)o1", "< 4.30"]
]}
